# EXPERIMENT: in vitro
# TEST_PARAMETERS: human, CC50, uninfected A549 cells, CellTiter-Glo
Assignment: determine reported CC50 for the given compounds.

Lab book: CC50 of CC[C@H]1/C=C/COc2c(Cl)cccc2[C@@H](c2ccccc2)N2CN1C(=O)c1c(O)c(=O)ccn12 (single isomer, unassigned) [Compound 98BA] noted as 26400 nM

Lab book: CC50 of CC1CCCCc2ccccc2C(c2ccccc2)N2CN1C(=O)c1c(O)c(=O)ccn12 (centres unmarked) noted as > 2000 nM

Lab book: CC50 of CC[C@H]1/C=C/COc2cc(Cl)ccc2[C@@H](c2ccccc2)N2CN1C(=O)c1c(O)c(=O)ccn12 (single isomer, unassigned) [Compound 97AB] noted as > 1000 nM

Lab book: CC50 of O=C1c2c(O)c(=O)ccn2N2CN1C/C=C\COc1c(Cl)cccc1[C@H]2c1ccccc1 (single isomer, unassigned) [Compound 75A] noted as > 2000 nM

Lab book: CC50 of CC[C@@H]1/C=C/COc2c(ccc(F)c2F)[C@H](c2ccccn2)N2CN1C(=O)c1c(O)c(=O)ccn12 (single isomer, unassigned) [Compound 160BB] noted as > 100 nM

* * *

Assignment: determine reported CC50 for the given compounds.
# EXPERIMENT: in vitro
# TEST_PARAMETERS: human, CC50, uninfected A549 cells, CellTiter-Glo

Lab book: CC50 of O=C1c2c(O)c(=O)ccn2N2CN1[C@H](C1CC1)/C=C/COc1c(ccc(F)c1F)[C@H]2c1ccccc1 (single isomer, unassigned) [Compound 152BB] noted as > 0.2 µM

Lab book: CC50 of O=C1c2c(O)c(=O)ccn2N2CN1C/C=C\COc1ccccc1[C@H]2c1ccccc1F (single isomer, unassigned) [Compound 36B] noted as > 2 µM

Lab book: CC50 of O=C1c2c(O)c(=O)ccn2N2CN1C/C=C\COc1ccccc1[C@H]2c1cccnc1 (single isomer, unassigned) [Compound 26A] noted as > 2 µM

Lab book: CC50 of O=C1c2c(O)c(=O)ccn2N2CN1CCCCOc1ccc(F)cc1[C@H]2c1ccccc1 (single isomer, unassigned) [Compound 30A] noted as > 2 µM

Lab book: CC50 of O=C1c2c(O)c(=O)ccn2N2CN1C/C=C/CCc1cc(F)c(F)cc1[C@H]2c1ccccn1 (single isomer, unassigned) [Compound 58B] noted as > 2 µM

Lab book: CC50 of O=C1c2c(O)c(=O)ccn2N2CN1CCC/C=C/COc1ccccc1[C@@H]2c1ccccc1 (single isomer, unassigned) [Compound 67B] noted as > 2 µM

Lab book: CC50 of Cc1cccnc1[C@@H]1c2ccc(F)c(F)c2OC/C=C/C2(CCC2)N2CN1n1ccc(=O)c(O)c1C2=O (single isomer, unassigned) [Compound 171A] noted as > 0.1 µM

Lab book: CC50 of CC(C)[C@@H]1/C=C/COc2cc(F)c(F)c3c2[C@@H](c2ccccc2SC3)N2CN1C(=O)c1c(O)c(=O)ccn12 (single isomer, unassigned) [Compound 169AB] noted as > 0.1 µM

Lab book: CC50 of O=C1c2c(O)c(=O)ccn2N2CN1C/C=C/COc1cc(F)c(F)c3c1[C@H]2c1ccccc1SC3 (single isomer, unassigned) [Compound 140B] noted as > 0.05 µM

Lab book: CC50 of O=C1c2c(O)c(=O)ccn2N2CN1CC/C=C\c1cccc3c1C2c1ccccc1CC3 (centres unmarked) noted as > 2 µM

Lab book: CC50 of CC[C@H]1/C=C/COc2cc(F)ccc2[C@@H](c2ccccc2)N2CN1C(=O)c1c(O)c(=O)ccn12 (single isomer, unassigned) [Compound 89AA] noted as 39.3 µM
